- EXPERIMENT NOTES: NCI Yeast Anticancer Drug Screen. Data for the bub3 strain (AID 167)
- CONDITION CONTEXT: S. cerevisiae bub3 mutant strain, at 50.0 µM, hits give high values
Compounds without any hit were thinned out: in the full panel of roughly 79,000, 15% have a hit.

MOLECULE	QUANTITY UNIT	growth inhibition
Nc1ccc(/C=C\C(=O)c2ccccc2)cc1	%	4.25
N#CCSCC(N)C(=O)O (configuration not stated)	%	-19.6
CC(C)CNC(=O)Cn1c2c(c3ccccc31)CCCC2	%	-14.8
Fc1ccc(C(=C(c2ccc(F)cc2)c2ccc(F)cc2)c2ccc(F)cc2)cc1	%	0.1
COC(=O)CC(c1ccccc1)N1CCOCC1 (configuration not stated)	%	7.35
Clc1ccc(-c2oc(-c3ccc(Cl)cc3)c3ccccc23)cc1	%	-15.5
CN1Cc2ccccc2[C@H]2C(c3ccccc3)=NN(c3ccccc3)[C@H]21	%	41.2
O=C(NO)C(=O)NO	%	-20
CC(C)OC(=O)N1C(=O)C2C3CCC(O3)C2C1=O (configuration not stated)	%	9.65
C=Cc1cccc([N+](=O)[O-])c1	%	19.6
C=C1C(=O)OC2CCC3OC(C)(C)OC3C12 (configuration not stated)	%	31.9
C=C(C)C1CC/C(C)=C/CC[C@]2(C)O[C@H]2CC/C(COC(C)=O)=C\[C@@H]1O (some centres not stated)	%	-18.6
CSC(=S)n1nc(-c2ccccc2)c(N=Nc2ccccc2[N+](=O)[O-])c1-c1ccccc1	%	18.6
c1ccc2c(c1)Cc1ccccc1-2	%	-20.9
COc1ccc(-c2cc(=O)c3c([nH]2)CCCC3)cc1	%	-4.3
CCC(N)CS(=O)(=O)O (configuration not stated)	%	-26.8
Cc1ccc(Sc2ccc3ccccc3c2)nc1	%	5.05

src = PubChem BioAssay (NCI)
